SYSTEM TESTED: recombinant rat Nln (Rattus norvegicus)
Sequence (P42676 38-704): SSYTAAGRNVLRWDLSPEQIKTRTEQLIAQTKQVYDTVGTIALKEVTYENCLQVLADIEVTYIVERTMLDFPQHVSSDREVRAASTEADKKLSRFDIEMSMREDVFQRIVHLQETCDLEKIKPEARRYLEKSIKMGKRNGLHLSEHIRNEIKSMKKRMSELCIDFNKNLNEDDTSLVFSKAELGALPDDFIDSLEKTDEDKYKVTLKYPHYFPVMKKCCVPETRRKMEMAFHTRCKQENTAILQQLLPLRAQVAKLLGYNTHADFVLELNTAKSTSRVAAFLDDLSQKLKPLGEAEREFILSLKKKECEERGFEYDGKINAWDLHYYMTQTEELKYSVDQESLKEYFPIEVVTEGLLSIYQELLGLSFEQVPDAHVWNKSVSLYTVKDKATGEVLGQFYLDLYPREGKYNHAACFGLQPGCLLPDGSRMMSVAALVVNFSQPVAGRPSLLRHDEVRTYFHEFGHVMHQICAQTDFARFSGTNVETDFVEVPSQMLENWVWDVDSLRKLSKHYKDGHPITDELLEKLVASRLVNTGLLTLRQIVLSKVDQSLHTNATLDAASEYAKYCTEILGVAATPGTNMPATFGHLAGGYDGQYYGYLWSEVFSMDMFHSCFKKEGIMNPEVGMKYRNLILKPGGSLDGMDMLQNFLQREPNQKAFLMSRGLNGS
ASSAY INFO: Nln activation, continuous quenched fluorescence substrate
Type: biochemical
CONDITION DESCRIPTION: 100% = normal enzyme turnover; mean of n = 4, 95% CI in parentheses
QUANTITY KIND: Amax, maximum % activation achieved (95% CI)

Worked set:
[
  {
    "COMPOUND": "N[C@@H](Cc1c[nH]cn1)C(=O)Nc1ccccc1",
    "RECORDED VALUE": "466.6 (402.3 to 579.7) %"
  },
  {
    "COMPOUND": "N[C@@H](Cc1c[nH]cn1)C(=O)Nc1cccc2cccnc12 [Compound 11a]",
    "RECORDED VALUE": "281.2 (266.7 to 297.1) %"
  },
  {
    "COMPOUND": "N[C@@H](Cc1c[nH]cn1)C(=O)NCCCc1ccccc1",
    "RECORDED VALUE": "288.1 (273.6 to 303.8) %"
  },
  {
    "COMPOUND": "N[C@H](Cc1c[nH]cn1)C(=O)Nc1ccccc1",
    "RECORDED VALUE": "440.3 (414.9 to 470.4) %"
  },
  {
    "COMPOUND": "N[C@H](Cc1c[nH]cn1)C(=O)NCCc1c[nH]c2ccccc12",
    "RECORDED VALUE": "132 (122.5 to 143.6) %"
  }
]

Fill in the blank: the reported Amax, maximum % activation achieved (95% CI) of `COc1ccc(CCNC(=O)[C@H](N)Cc2c[nH]cn2)cc1` is ____. 378.3 (350.5 to 411.9) %

Fill in the blank: the reported Amax, maximum % activation achieved (95% CI) of N[C@@H](Cc1c[nH]cn1)C(=O)NCc1cccc2ccccc12 [Compound 10c] is ____. 264 (256.3 to 272.6) %
